- assayed target: mice brain AChE (Mus musculus)
- Construct: Mice brain homogenate prepared in saline was used as a source of AChE; from tissue; host or cells: mouse brain homogenate
- Sequence (P21836 32-614): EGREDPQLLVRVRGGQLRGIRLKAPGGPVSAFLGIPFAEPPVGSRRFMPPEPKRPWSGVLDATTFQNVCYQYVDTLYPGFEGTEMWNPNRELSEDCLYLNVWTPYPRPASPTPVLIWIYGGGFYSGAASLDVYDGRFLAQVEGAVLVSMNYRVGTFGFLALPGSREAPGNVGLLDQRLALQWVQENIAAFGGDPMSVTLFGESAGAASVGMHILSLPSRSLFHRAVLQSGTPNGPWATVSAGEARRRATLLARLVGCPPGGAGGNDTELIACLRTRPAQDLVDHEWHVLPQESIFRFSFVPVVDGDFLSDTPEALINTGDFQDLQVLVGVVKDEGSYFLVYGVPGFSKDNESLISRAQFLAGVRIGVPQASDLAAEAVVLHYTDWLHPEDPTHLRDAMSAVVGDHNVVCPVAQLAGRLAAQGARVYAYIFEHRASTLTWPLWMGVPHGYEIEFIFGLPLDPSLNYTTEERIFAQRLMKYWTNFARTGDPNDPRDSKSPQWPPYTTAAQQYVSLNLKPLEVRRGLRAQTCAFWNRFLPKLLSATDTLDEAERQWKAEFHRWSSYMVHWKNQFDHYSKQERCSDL
- experiment summary: AChE inhibition, Ellman spectrophotometric assay, mice brain homogenate
- Type: biochemical
- condition context: mice serum BChE versus mice brain AChE IC50
Mark label 1 for reported AChE selectivity of 0.05 or greater; mark label 0 for anything smaller.

Record excerpt, results attached:
CC[C@@]1(c2cccc(O)c2)CCCCN(CCCCCN2CCCC[C@@](CC)(c3cccc(O)c3)C2)C1 : label 0
CCC1(c2cccc(O)c2)CCCCN(C)C1 (single isomer, unassigned; (-)) [(−)-meptazinol] : label 1
CC[C@@]1(c2cccc(O)c2)CCCCN(CCN2CCCC[C@@](CC)(c3cccc(O)c3)C2)C1 : label 0
CC[C@@]1(c2cccc(O)c2)CCCCN(CCCCCCCCCCCN2CCCC[C@@](CC)(c3cccc(O)c3)C2)C1 : label 1

Let us examine a further case.
Please tell me: is the compound CC[C@@]1(c2cccc(O)c2)CCCCN(CCCN2CCCC[C@@](CC)(c3cccc(O)c3)C2)C1 at or over 0.05 in terms of AChE selectivity?
label 0
